Catalogue of molecules with associated pIC50
# study system: SzeaOBP1 (Sitophilus zeamais, UniProt A0A4P9CZ78)
# Sequence (A0A4P9CZ78 entry or part of it): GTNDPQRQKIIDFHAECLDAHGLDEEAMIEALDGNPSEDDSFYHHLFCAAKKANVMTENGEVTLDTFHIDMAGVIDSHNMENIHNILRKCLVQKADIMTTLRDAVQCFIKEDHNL
# test details: Fluorescence competitive binding assay (1-NPN probe) with recombinant SzeaOBP1
Reminder that pIC50 means the negative base-10 logarithm of the concentration expressed in mol/L.

Recorded results for 5 molecules are shown here.
COCCOC(=O)c1ccccc1C(=O)OCCOC [Bis(methylglycol) phthalate, Bis(2-methoxyethyl) phthalate]	5.32
CCCC(C)=O	4.93
COc1cc(C=O)ccc1O [4-Hydroxy-3-methoxybenzaldehyde]	5.36
CCCCCC=O	5.22
O=Cc1ccccc1	5.28

Here is another molecule to look at.
Qu. Could you share which pIC50 value was measured for CC(=O)CCC=C(C)C ?
Ans. 5.19

###

# Test system: adult S. zeamais
# test details: Behavioural experiment in a Y-tube olfactometer, normal adults
# Assay type: in vivo, Sitophilus zeamais
# measurement conditions: normal insects, 10 min observation
measurement name: behavioural response (attraction) of male and female adults vs blank control

CCC(C)C=O (stereo not shown) [2-Methylbutyraldehyde]	Significant differences
CCCCCCCCCCCCCCCCO [Cetanol]	Significant differences

###

# study system: SzeaOBP28 (Sitophilus zeamais, UniProt A0A4V1GPX2)
# Sequence (A0A4V1GPX2 entry or part of it): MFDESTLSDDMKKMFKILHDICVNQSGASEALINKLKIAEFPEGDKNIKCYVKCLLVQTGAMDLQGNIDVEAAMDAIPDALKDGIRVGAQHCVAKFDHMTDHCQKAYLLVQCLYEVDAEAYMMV
# test details: Fluorescence competitive binding assay (1-NPN probe) with recombinant SzeaOBP28
# measurement conditions: fluorescence competitive binding
measurement name: binding to SzeaOBP28, in words

CC1=CC[C@@H]2C[C@H]1C2(C)C [(+)-a-Pinene]	did not bind
CCCCCCCCCC=O [Decanal]	did not bind
CCCCC/C=C\C/C=C\CCCCCCCC(=O)O [Linoleic acid]	did not bind

###

# reported Ki; entries follow
# study system: SzeaOBP28 (Sitophilus zeamais)
# test details: Fluorescence competitive binding assay (1-NPN probe) with recombinant SzeaOBP28
Field: numeric (µM). Do not append units.

These solved cases illustrate the format of a correct answer.
COCCOC(=O)c1ccccc1C(=O)OCCOC [Bis(methylglycol) phthalate, Bis(2-methoxyethyl) phthalate]	31.9
CCCCCC=O	48.7
COc1cc(C=O)ccc1O [4-Hydroxy-3-methoxybenzaldehyde]	20.2

Next, consider the following compound.
Qu. // returns reported Ki for input CC(=O)CCC=C(C)C
Ans. 37.6

###

# study system: SzeaOBP28 (Sitophilus zeamais)
# test details: Fluorescence competitive binding assay (1-NPN probe) with recombinant SzeaOBP28
measurement name: Kd (µM)
Answer in µM, number only, no unit symbol.

Qu. Which Kd is reported for this molecule? c1ccc(Nc2cccc3ccccc23)cc1 [Ligand 1-NPN, N-Phenyl-1-naphthylamine, reference compound]
Ans. 7.21

###

# study system: SzeaOBP28 (Sitophilus zeamais, UniProt A0A4V1GPX2)
# test details: Fluorescence competitive binding assay (1-NPN probe) with recombinant SzeaOBP28
# measurement conditions: calculated from IC50 with K1-NPN 7.214 μM; protein and 1-NPN 2 μM, Tris-HCl pH 7.4; read-out: Ki SzeaOP28
measurement name: Ki

CCCCCCCCCO	> 49.2 µM
CCCCCCCCC=O	48.2 µM
CC(C)C=O	> 49.2 µM
CCCCCCCCCCCCCCCC(=O)O	40.8 µM
C=CC(=C)CCC=C(C)C [Myrcene (stabilized with BHT)]	> 49.2 µM

Qu. // lookup Ki for CC1=CC[C@@H]2C[C@H]1C2(C)C [(+)-a-Pinene]
Ans. > 49.2 µM

Qu. Return reported Ki; argument: CCCCCCCCO
Ans. > 49.2 µM

Qu. Please look up its Ki: CCCCCCCCCCCCCCC
Ans. > 49.2 µM
